# Tested on: RARa homodimer (NR concentration 270 nM)
# Experimental details: PBM binding z-score (relative to random genomic background probes); higher = stronger binding; sequences stand for … in GC…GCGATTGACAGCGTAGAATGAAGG
Reported metric: PBM binding z-score
Would you mind answering with just the numeric figure?

Use these answered entries as a reference point.
# Seq text, Reported metric, Numeric result
measured = [
    ("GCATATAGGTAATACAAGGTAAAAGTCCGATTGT", "PBM binding z-score", 0.741),
    ("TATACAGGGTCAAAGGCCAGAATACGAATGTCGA", "PBM binding z-score", 0.841),
    ("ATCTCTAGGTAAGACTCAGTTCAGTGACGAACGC", "PBM binding z-score", 1.18),
    ("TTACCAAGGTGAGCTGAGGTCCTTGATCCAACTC", "PBM binding z-score", -1.39),
    ("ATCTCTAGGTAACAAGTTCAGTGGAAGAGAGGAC", "PBM binding z-score", 1.39),
]

Item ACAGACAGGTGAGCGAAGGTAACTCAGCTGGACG has what recorded PBM binding z-score?
-0.65

Quick check: PBM binding z-score of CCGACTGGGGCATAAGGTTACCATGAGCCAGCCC ?
0.564

The origin of these recorded values is the supplement of paper PMC6555819.
